experimental-target: ULK3 (human)
assay-text: KINOMEscan competition binding
particulars: compound 10.0 µM
kinase still bound, per cent of control reference
Report the figure in % without appending any unit label.

{"smiles-string": "COc1ccc(-c2ccc3c(N4CCOCC4)nc(N4C[C@@H](C)O[C@@H](C)C4)nc3n2)cc1CO", "kinase still bound, per cent of control [%]": 100}
{"smiles-string": "CCC(=O)N1CCN(c2ccc(-n3c(=O)ccc4cnc5ccc(-c6cnc7ccccc7c6)cc5c43)cc2C(F)(F)F)CC1", "kinase still bound, per cent of control [%]": 100}

QUERY: Consider the molecule "CC(C)n1nc(-c2cc3cc(O)ccc3[nH]2)c2c(N)ncnc21" and give its measured kinase still bound, per cent of control.
RESULT: 65

QUERY: What value of measured kinase still bound, per cent of control is listed for "COC(=O)Nc1ccc(-c2nc(N3CCOCC3)c3cnn(C4CCN(C(=O)OC)CC4)c3n2)cc1" ?
RESULT: 88

* * *

experimental-target: EPHA2 (human) (UniProt P29317)
Sequence (P29317 whole entry, looked up): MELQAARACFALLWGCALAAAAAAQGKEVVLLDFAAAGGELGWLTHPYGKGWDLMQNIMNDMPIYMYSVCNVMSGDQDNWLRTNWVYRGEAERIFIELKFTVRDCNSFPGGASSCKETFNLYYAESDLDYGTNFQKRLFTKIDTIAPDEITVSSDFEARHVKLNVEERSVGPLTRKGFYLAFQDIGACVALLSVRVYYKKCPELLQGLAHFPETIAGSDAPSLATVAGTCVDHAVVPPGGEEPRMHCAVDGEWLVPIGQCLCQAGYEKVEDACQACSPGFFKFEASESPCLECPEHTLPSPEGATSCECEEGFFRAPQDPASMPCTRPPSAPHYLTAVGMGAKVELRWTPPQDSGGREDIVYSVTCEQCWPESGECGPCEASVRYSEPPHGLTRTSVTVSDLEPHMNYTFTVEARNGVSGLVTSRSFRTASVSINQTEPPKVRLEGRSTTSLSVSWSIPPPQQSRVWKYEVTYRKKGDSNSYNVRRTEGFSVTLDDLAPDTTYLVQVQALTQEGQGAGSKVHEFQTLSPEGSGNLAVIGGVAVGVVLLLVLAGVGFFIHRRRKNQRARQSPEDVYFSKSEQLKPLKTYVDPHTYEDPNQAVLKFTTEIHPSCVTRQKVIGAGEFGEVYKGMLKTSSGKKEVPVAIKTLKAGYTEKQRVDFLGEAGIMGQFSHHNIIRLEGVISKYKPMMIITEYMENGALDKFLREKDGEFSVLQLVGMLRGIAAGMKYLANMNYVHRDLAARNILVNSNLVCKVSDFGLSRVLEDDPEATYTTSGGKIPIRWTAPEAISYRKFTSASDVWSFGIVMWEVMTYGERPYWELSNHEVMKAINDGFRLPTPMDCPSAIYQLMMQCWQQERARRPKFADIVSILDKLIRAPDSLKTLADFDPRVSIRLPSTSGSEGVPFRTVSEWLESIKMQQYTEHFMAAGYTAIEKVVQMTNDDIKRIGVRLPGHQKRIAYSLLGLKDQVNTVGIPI
particulars: compound 1.0 µM
quantity-measured: per cent of control (%)
Expressed in %, but write only the number.

QUERY: Notebook: pull reported per cent of control for EPHA2 (human) (UniProt P29317), entry "CC(C)n1nc(-c2cc3cc(O)ccc3[nH]2)c2c(N)ncnc21"
RESULT: 12

* * *

experimental-target: PIK3CB (human)
assay-text: KINOMEscan competition binding
particulars: compound 10.0 µM
quantity-measured: kinase still bound, per cent of control (%)
Numbers only; they are read as %.

Solved entries (count: 3):
{"smiles-string": "COC(=O)Nc1ccc(-c2nc(N3CCOCC3)c3cnn(C4CCN(C(=O)OC)CC4)c3n2)cc1", "quantity-measured": "kinase still bound, per cent of control", "reading": 42}
{"smiles-string": "CC(C)n1nc(-c2cc3cc(O)ccc3[nH]2)c2c(N)ncnc21", "quantity-measured": "kinase still bound, per cent of control", "reading": 0}
{"smiles-string": "COc1ccc(-c2ccc3c(N4CCOCC4)nc(N4C[C@@H](C)O[C@@H](C)C4)nc3n2)cc1CO", "quantity-measured": "kinase still bound, per cent of control", "reading": 30}

Consider the additional compound presented here.
QUERY: Please look up its kinase still bound, per cent of control: "CCC(=O)N1CCN(c2ccc(-n3c(=O)ccc4cnc5ccc(-c6cnc7ccccc7c6)cc5c43)cc2C(F)(F)F)CC1"
RESULT: 65

* * *

Consider the following compounds and their measured kinase still bound, per cent of control readings.
experimental-target: PI4KB (human) (UniProt Q9UBF8)
Sequence (Q9UBF8 whole entry, looked up): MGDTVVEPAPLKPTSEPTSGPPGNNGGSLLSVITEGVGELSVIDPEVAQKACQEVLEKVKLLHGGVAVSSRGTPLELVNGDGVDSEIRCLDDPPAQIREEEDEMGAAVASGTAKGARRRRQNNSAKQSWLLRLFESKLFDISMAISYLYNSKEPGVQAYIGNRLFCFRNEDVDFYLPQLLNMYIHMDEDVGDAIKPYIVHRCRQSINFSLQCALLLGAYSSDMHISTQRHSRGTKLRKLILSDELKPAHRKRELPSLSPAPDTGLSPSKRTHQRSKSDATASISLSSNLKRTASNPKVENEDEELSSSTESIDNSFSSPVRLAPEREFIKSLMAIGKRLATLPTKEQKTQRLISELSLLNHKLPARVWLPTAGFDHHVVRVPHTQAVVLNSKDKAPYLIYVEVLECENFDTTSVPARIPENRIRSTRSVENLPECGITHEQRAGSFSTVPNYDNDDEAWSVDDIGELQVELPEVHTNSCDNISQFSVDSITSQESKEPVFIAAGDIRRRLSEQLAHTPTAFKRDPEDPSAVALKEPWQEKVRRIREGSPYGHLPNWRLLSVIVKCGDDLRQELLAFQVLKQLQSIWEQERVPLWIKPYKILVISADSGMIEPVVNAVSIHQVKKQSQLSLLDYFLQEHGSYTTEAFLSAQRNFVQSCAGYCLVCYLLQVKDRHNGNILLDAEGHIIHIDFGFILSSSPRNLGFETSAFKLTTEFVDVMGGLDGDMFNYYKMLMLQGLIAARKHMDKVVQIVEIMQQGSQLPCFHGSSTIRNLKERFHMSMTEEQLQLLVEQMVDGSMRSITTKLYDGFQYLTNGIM
assay-text: KINOMEscan competition binding
particulars: compound 10.0 µM
// note: answer is a bare numeric in %

Solved entries:
{"smiles-string": "COC(=O)Nc1ccc(-c2nc(N3CCOCC3)c3cnn(C4CCN(C(=O)OC)CC4)c3n2)cc1", "measurement-units": "%", "kinase still bound, per cent of control": 100}
{"smiles-string": "COc1ccc(-c2ccc3c(N4CCOCC4)nc(N4C[C@@H](C)O[C@@H](C)C4)nc3n2)cc1CO", "measurement-units": "%", "kinase still bound, per cent of control": 100}

QUERY: Suppose we examine the compound "CCC(=O)N1CCN(c2ccc(-n3c(=O)ccc4cnc5ccc(-c6cnc7ccccc7c6)cc5c43)cc2C(F)(F)F)CC1" ; what kinase still bound, per cent of control value has been reported?
RESULT: 96

QUERY: Fill in the blank: the reported kinase still bound, per cent of control of "CC(C)n1nc(-c2cc3cc(O)ccc3[nH]2)c2c(N)ncnc21" is ____.
RESULT: 2.4
